Tested on: Staphylococcus aureus
assay.info: Antimicrobial activity against Staphylococcus aureus RCMB 010028 assessed as diameter of zone inhibition at 100 ug/ml after 24 hrs by agar well diffusion assay
Format: functional
measurement.setup: RCMB 010028, 24 h, read-out: DIZ
Item-by-item account of zone of inhibition at 100 µg/mL
observation.type: zone of inhibition at 100 µg/mL (mm)

>>> observed_measurement("COc1ccc(/C=N/NC(=O)c2c[nH]c3ccc(Cl)cc3c2=O)cc1OC")
17.2
>>> observed_measurement("COc1cc(/C=N/NC(=O)c2ccc(-c3ccc(Cl)cc3)nc2C)cc(OC)c1OC")
23.4
>>> observed_measurement("Cc1nc(-c2ccc(Cl)cc2)ccc1C(=O)N/N=C/c1ccc(O)cc1")
18.3
